For each record, write down the corresponding IC50.
Molecular target: P2X7 (Homo sapiens, UniProt Q99572)
Sequence (Q99572 1-595): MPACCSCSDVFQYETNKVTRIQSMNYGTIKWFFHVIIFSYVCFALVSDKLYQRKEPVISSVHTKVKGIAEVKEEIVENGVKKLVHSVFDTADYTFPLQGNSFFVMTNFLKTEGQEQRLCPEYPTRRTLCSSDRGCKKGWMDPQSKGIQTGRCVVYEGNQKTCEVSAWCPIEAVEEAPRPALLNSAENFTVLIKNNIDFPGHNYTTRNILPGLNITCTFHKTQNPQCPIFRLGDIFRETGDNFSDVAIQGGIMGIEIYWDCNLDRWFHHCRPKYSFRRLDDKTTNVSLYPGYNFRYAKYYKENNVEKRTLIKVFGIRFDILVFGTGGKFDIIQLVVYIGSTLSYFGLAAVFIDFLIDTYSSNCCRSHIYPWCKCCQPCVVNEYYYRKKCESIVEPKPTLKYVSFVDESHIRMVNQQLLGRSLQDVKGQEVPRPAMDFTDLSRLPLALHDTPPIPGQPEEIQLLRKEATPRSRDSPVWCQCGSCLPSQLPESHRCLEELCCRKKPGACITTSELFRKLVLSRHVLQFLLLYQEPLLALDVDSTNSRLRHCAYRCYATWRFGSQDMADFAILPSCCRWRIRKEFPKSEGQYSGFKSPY
Experiment: IL-1β release assay in THP-1 cells (sandwich ELISA, BzATP-stimulated)
Assay type: cell-based
Design: endogenous in cells; host or cells: THP-1 cells (PMA-differentiated, LPS-primed)
Settings: LPS primed, 0.8 mM BzATP, mature IL-1β release, read-out: hTHP-1/IL-ib IC50

Dear reader, for each entry below, please note its IC50.
1. COCCc1cc(C(=O)NCC2(O)CCC(F)(F)C(C)C2)c2c(Cl)cccn12 (centres unmarked)
2. O=C(NC[C@]1(O)CCCC(F)(F)C1)c1cc(C2CCOC2)n2cccc(Cl)c12 (some centres unmarked)
3. [2H]C([2H])([2H])OCCc1cc(C(=O)NCC2CCC(F)(F)CC2)c2c(Cl)cccn12
4. O=C(NCC1CCC(F)(F)CC1)c1cc(C2CCC2)n2cccc(Cl)c12
5. COCCc1cc(C(=O)NCC2CCC(F)(F)CC2)c2c(Cl)cccn12
6. COCCc1cc(C(=O)NCC2(O)CCCC(F)(F)C2)c2c(C(F)(F)F)cccn12 (centres unmarked)

1. 101 to 500 nM
2. 10 to 100 nM
3. 10 to 100 nM
4. 101 to 500 nM
5. 10 to 100 nM
6. 10 to 100 nM

Dear reader, for each entry below, please note its IC50.
1. COCCc1cc(C(=O)NC[C@@]2(O)CCC[C@@H](C)C2)c2c(C(F)(F)F)cccn12
2. O=C(NCC1CCC(F)(F)CC1)c1cc(I)n2cccc(Cl)c12

10 to 100 nM
101 to 500 nM

###

target: P2X7 (Homo sapiens, UniProt Q99572); test: IL-1β release assay in THP-1 cells (sandwich ELISA, BzATP-stimulated); format: cell-based; set-up: endogenous in cells; host or cells: THP-1 cells (PMA-differentiated, LPS-primed); settings: LPS primed, 0.8 mM BzATP, mature IL-1β release, read-out: hTHP-1/IL-ib IC50
pIC50: −log10 of the molar value.
quantity.name: pIC50

COCCc1cc(C(=O)NCC2CCCC(F)(F)C2)c2c(Cl)cccn12 (stereo not drawn) [Compound 31] :: 7.00 to 8.00
COCCc1cc(C(=O)NCC2(O)CCCC(F)(F)C2)c2c(Cl)cccn12 (stereo in doubt) [Compound 63] :: > 8.00
O=C(NC[C@@]1(O)CCCC(F)(F)C1)c1cc(C2CCOC2)n2cccc(Cl)c12 (stereo partly drawn) [Compound 66] :: 6.30 to 7.00
O=C(NCC1CCCC(F)(F)C1)c1cc(CCO)n2cccc(Cl)c12 (stereo not drawn) [Compound 45] :: 6.30 to 7.00
C[C@@H]1CCC[C@](O)(CNC(=O)c2cc(C3CCC3)n3cccc(Cl)c23)C1 [Compound 71] :: 7.00 to 8.00

Next compound, please.
Look up and report measured pIC50 (P2X7 (Homo sapiens, UniProt Q99572)) for the following compound: COCCc1cc(C(=O)NCC2(O)CCCC3(CC3)C2)c2c(Cl)cccn12 (stereo not drawn) [Compound 29]
6.30 to 7.00

The reported measurements were obtained from patent US9931324B2.
